- Test system: HCV 1b genotype
- Measurement protocol: microbe, parasite or virus in culture
- Assay type: cell-based, Hepatitis C virus
- Setup conditions: Hepatitis C virus, HCV 1b replicon; read-out: Range: EC50 ranges against HCV 1b
pEC50: −log10 of the molar value.
Endpoint: pEC50

* COC(=O)N[C@H](C(=O)N1[C@@H](C)CC[C@H]1c1ncc(-c2ccc(-c3ccc(-c4cnc([C@@H]5CC[C@H](C)N5C(=O)[C@@H](NC(=O)OC)C5CC6(COC6)C5)[nH]4)cc3)cc2)[nH]1)C1CC2(COC2)C1 (stereo partly drawn) | 10.00 to 11.30
* COC(=O)NC(C(=O)N1C(c2nc(-c3ccc(-c4ccc(-c5c[nH]c([C@@H]6CC[C@H](C)N6C(=O)C(NC(=O)OC)C6CCC7(CC7)OC6)n5)cc4)cc3)c[nH]2)CC[C@@H]1C)C1CCC2(CC2)OC1 (stereo partly drawn) | 10.00 to 11.30
* COC(=O)NC(C(=O)N1[C@@H]2C[C@@H]2C[C@H]1c1nc(-c2ccc(-c3ccc4c(c3)CCc3[nH]c([C@@H]5C[C@H]6C[C@H]6N5C(=O)C(NC(=O)OC)C5CCOC6(CC6)C5)nc3-4)cc2)c[nH]1)C1CCOC2(CC2)C1 (stereo partly drawn) | 10.00 to 11.30
* COC(=O)N[C@H](C(=O)N1C(CO)CCC1c1ncc(-c2ccc(-c3ccc(-c4cnc(C5CCC(CO)N5C(=O)[C@@H](NC(=O)OC)C5C[C@@H](C)O[C@H](C)C5)[nH]4)cc3)cc2)[nH]1)C1C[C@@H](C)O[C@H](C)C1 (single isomer, unassigned) | 6.15 to 9.05
* COC(=O)N[C@H](C(=O)N1[C@@H](CO)CC[C@H]1c1ncc(-c2ccc(-c3ccc(-c4cnc([C@@H]5CC[C@H](CO)N5C(=O)[C@@H](NC(=O)OC)C5C[C@@H](C)O[C@H](C)C5)[nH]4)cc3)cc2)[nH]1)C1C[C@@H](C)O[C@H](C)C1 (single isomer, unassigned) | 6.15 to 9.05
* COC(=O)N[C@H](C(=O)N1[C@H](c2nc(-c3ccc(-c4ccc(-c5c[nH]c([C@@H]6C[C@@]7(C)C[C@H]7N6C(=O)[C@@H](NC(=O)OC)[C@H]6CCOC7(CC7)C6)n5)cc4)cc3)c[nH]2)C[C@@]2(C)C[C@@H]12)[C@H]1CCOC2(CC2)C1 | 10.00 to 11.30

###

- Tested on: HCV 1b genotype
- Measurement protocol: microbe, parasite or virus in culture
- Assay type: cell-based, Hepatitis C virus
- Setup conditions: Hepatitis C virus, HCV 1b replicon; read-out: Range: EC50 ranges against HCV 1b
pEC50: −log10 of the molar value.
Below, each of the compounds is paired with its reported pEC50 value.
Endpoint: pEC50

- COC(=O)NC(C(=O)N1[C@@H](C)CC[C@H]1c1ncc(-c2ccc(-c3ccc(-c4cnc([C@@H]5CC[C@H](C)N5C(=O)C(NC(=O)OC)C5CC6(CC6)C5)[nH]4)cc3)cc2)[nH]1)C1CC2(CC2)C1 (stereo partly shown): 6.15 to 9.05
- COC(=O)NC(C(=O)N1CCC[C@H]1c1ncc(-c2ccc(-c3ccc(-c4cnc([C@@H]5CCCN5C(=O)C(NC(=O)OC)C5CCOC6(CC6)C5)[nH]4)cn3)cc2)[nH]1)C1CCOC2(CC2)C1 (stereo partly shown): 9.05 to 10.00
- COC(=O)N[C@H](C(=O)N1CC2(CCCC2)C[C@H]1c1nc(-c2ccc(-c3ccc(-c4c[nH]c([C@@H]5CC6(CCCC6)CN5C(=O)[C@@H](NC(=O)OC)C5C[C@@H](C)O[C@H](C)C5)n4)cc3)cc2)c[nH]1)C1C[C@@H](C)O[C@H](C)C1 (stereo partly shown): 10.00 to 11.30
- COC(=O)N[C@H](C(=O)N1[C@@H]2C[C@@H]2C[C@H]1c1nc(-c2ccc(-c3ccc(-c4c[nH]c([C@@H]5C[C@H]6C[C@H]6N5C(=O)[C@@H](NC(=O)OC)C5CCC(=O)CC5)n4)cc3)cc2)c[nH]1)C1CCC(=O)CC1: 9.05 to 10.00

###

As shown below, each of these molecules has a reported EC50 value.
- Tested on: HCV 1b genotype
- Measurement protocol: microbe, parasite or virus in culture
- Format: cell-based, Hepatitis C virus
- Setup conditions: Hepatitis C virus, HCV 1b replicon; read-out: Range: EC50 ranges against HCV 1b
Endpoint: EC50

* COC(=O)NC(C(=O)N1CCC[C@H]1c1nc2cc(-c3ccc4c(ccc5nc([C@@H]6CCCN6C(=O)C(NC(=O)OC)C6CCOC7(CC7)C6)[nH]c54)c3)ccc2[nH]1)C1CCOC2(CC2)C1 (some centres unmarked) | 0.1 to 0.9 nM
* COC(=O)N[C@H](C(=O)N1[C@@H](C)CC[C@H]1c1ncc(-c2ccc(-c3ccc(-c4cnc([C@@H]5CC[C@H](C)N5C(=O)[C@@H](NC(=O)OC)[C@@H]5CCO[C@H](C6CC6)C5)[nH]4)cc3)cc2)[nH]1)[C@@H]1CCO[C@H](C2CC2)C1 | 0.00501 to 0.1 nM

###

- System: HCV 1b genotype
- Measurement protocol: microbe, parasite or virus in culture
- Format: cell-based, Hepatitis C virus
- Setup conditions: Hepatitis C virus, HCV 1b replicon; read-out: Range: EC50 ranges against HCV 1b
pEC50: −log10 of the molar value.
Recorded pEC50, one value per entry.
Endpoint: pEC50

• COC(=O)NC(C(=O)N1[C@@H](C)CC[C@H]1c1nc(-c2ccc(-c3ccc(-c4c[nH]c([C@@H]5CC[C@H](C)N5C(=O)C(NC(=O)OC)=C5CC(C)(C#N)C5)n4)cc3)cc2)c[nH]1)=C1CC(C)(C#N)C1 (some centres unmarked) = 6.15 to 9.05
• C#C[C@@H]1CC[C@@H](c2ncc(-c3ccc(-c4ccc(-c5cnc([C@@H]6CC[C@@H](C#C)N6C(=O)[C@@H](NC(=O)OC)C6C[C@@H](C)O[C@H](C)C6)[nH]5)cc4)cc3)[nH]2)N1C(=O)[C@@H](NC(=O)OC)C1C[C@@H](C)O[C@H](C)C1 (some centres unmarked) = 9.05 to 10.00
• COC(=O)N[C@H](C(=O)N1C[C@H](CC2CC2)C[C@H]1c1nc(-c2ccc(-c3ccc(-c4c[nH]c([C@@H]5C[C@@H](CC6CC6)CN5C(=O)[C@@H](NC(=O)OC)C5C[C@@H](C)O[C@H](C)C5)n4)cc3)cc2)c[nH]1)C1C[C@@H](C)O[C@H](C)C1 (some centres unmarked) = 10.00 to 11.30
• C=C1CC(C(NC(=O)OC)C(=O)N2[C@@H](C)CC[C@H]2c2ncc(-c3ccc(-c4ccc(-c5cnc([C@@H]6CC[C@H](C)N6C(=O)C(NC(=O)OC)C6CC(=C)C6)[nH]5)cc4)cc3)[nH]2)C1 (some centres unmarked) = 9.05 to 10.00
• COC(=O)NC(C(=O)N1CCC[C@H]1c1nc(-c2ccc(-c3c[nH]c([C@@H]4CCCN4C(=O)C(NC(=O)OC)C4CCOC5(CC5)C4)n3)cc2)c[nH]1)C1CCOC2(CC2)C1 (some centres unmarked) = 6.15 to 9.05
• C#C[C@H]1CC[C@@H](c2ncc(-c3ccc(-c4ccc(-c5cnc([C@@H]6CC[C@H](C#C)N6C(=O)[C@@H](NC(=O)OC)C6C[C@@H](C)O[C@H](C)C6)[nH]5)cc4)cc3)[nH]2)N1C(=O)[C@@H](NC(=O)OC)C1C[C@@H](C)O[C@H](C)C1 (some centres unmarked) = 10.00 to 11.30
• COC(=O)N[C@H](C(=O)N1[C@@H](C)CC[C@H]1c1nc(-c2ccc(-c3ccc(-c4c[nH]c([C@@H]5CC[C@H](C)N5C(=O)[C@@H](NC(=O)OC)C56CC(C(F)(F)F)(C5)C6)n4)cc3)cc2)c[nH]1)C12CC(C(F)(F)F)(C1)C2 = 9.05 to 10.00
• COC(=O)N[C@H](C(=O)N1[C@@H]2C[C@@H]2C[C@H]1c1nc(-c2ccc(-c3ccc(-c4c[nH]c([C@@H]5C[C@H]6C[C@H]6N5C(=O)[C@@H](NC(=O)OC)C56CC(C(F)(F)F)(C5)C6)n4)cc3)cc2)c[nH]1)C12CC(C(F)(F)F)(C1)C2 = 10.00 to 11.30
